# Test system: rhinovirus A16
# protocolText: microbe, parasite or virus in culture
# reportedConditions: Rhinovirus A, HeLa, 48 h
# Description: Antiviral activity against Human rhinovirus 16 infected in human HeLa cells assessed as inhibition of viral replication measured after 48 hrs
Overview of recorded IC50 for various compounds

{"lineNotation": "CC(C)(C)C(=O)Nc1nc(C(F)(F)F)c(-c2csc(Nc3cccc(C(F)(F)F)n3)n2)s1", "unitAnnotation": "µM", "IC50": 9.02}
{"lineNotation": "COC(=O)c1cc(Nc2nc(-c3sc(NC(=O)c4ccccc4)nc3C(F)(F)F)cs2)cc(C(F)(F)F)c1", "unitAnnotation": "µM", "IC50": 2.44}
{"lineNotation": "CC(C)(C)C(=O)Nc1nc(C(F)(F)F)c(-c2c[nH]c(Nc3cccc(C(F)(F)F)c3)n2)s1", "unitAnnotation": "µM", "IC50": 10.4}
{"lineNotation": "CC(C)(C)C(=O)Nc1nc(C(F)(F)F)c(-c2csc(Nc3ccc(O)c(C(=O)O)c3)n2)s1", "unitAnnotation": "µM", "IC50": 9.77}
